Cited source: patent US10624897B2

- Tested system: PIP5K1C (Homo sapiens)
- Sequence (O60331 whole entry): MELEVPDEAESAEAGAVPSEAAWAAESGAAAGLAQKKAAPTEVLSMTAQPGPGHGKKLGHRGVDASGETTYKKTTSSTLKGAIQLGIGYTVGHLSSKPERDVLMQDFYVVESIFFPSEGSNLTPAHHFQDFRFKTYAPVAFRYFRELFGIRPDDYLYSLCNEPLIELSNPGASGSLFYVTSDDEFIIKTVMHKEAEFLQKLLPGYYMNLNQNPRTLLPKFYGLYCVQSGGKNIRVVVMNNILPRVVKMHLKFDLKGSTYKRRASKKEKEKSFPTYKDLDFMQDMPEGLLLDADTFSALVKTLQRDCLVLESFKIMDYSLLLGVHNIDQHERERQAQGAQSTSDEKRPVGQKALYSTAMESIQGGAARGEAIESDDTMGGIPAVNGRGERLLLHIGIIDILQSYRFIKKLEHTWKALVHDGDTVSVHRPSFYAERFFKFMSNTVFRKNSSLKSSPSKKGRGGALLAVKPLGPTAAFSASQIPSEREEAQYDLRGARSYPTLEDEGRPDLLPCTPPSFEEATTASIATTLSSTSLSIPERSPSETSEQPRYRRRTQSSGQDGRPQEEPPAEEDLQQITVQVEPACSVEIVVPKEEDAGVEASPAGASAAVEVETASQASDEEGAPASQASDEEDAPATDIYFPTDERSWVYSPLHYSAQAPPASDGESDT
Observed property: Kd

# query: Kd of entry `CCN1CCN(c2ccc(Nc3ncnc(N(C)C(=O)Nc4c(Cl)c(OC)c(Cl)c(OC)c4Cl)n3)cc2)CC1`
> 10 µM

---

- Tested system: PIK3CG (Homo sapiens, UniProt P48736)
- Sequence (P48736 whole entry): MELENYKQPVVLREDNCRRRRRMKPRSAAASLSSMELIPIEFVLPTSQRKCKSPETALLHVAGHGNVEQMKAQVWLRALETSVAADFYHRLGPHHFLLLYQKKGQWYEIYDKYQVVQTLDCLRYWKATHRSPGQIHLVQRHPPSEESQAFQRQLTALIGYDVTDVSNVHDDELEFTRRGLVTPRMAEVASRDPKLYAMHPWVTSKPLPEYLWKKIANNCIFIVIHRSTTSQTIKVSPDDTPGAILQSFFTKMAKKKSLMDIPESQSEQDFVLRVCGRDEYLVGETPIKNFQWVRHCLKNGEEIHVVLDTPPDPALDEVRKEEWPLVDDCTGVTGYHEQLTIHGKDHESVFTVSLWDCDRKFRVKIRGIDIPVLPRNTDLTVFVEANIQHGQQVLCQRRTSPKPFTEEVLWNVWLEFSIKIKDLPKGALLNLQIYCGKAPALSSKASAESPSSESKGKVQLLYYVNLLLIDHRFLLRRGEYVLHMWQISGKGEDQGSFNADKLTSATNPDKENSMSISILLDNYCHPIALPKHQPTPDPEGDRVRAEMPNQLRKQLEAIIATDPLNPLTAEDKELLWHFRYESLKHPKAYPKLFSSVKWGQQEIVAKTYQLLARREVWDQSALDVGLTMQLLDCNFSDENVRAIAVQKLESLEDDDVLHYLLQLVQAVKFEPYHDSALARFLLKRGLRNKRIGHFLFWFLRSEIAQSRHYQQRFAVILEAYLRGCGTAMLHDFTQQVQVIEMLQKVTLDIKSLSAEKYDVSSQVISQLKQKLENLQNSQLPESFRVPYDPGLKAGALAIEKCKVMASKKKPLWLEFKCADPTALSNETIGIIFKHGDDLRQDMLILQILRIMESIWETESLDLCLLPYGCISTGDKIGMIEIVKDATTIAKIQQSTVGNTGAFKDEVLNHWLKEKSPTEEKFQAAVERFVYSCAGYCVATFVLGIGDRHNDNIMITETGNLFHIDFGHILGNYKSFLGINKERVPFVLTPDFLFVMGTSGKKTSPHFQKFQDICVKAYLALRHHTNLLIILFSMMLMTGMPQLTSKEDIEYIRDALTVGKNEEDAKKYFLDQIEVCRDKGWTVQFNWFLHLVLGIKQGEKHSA
pKd: −log10 of the molar value.
Observed property: pKd

Look up pKd: `CCN1CCN(c2ccc(Nc3ncnc(N(C)C(=O)Nc4c(Cl)c(OC)c(Cl)c(OC)c4Cl)n3)cc2)CC1`
< 5.00

---

- System: RT-112
- Experiment summary: MTT assay, cell viability
- Assay type: cell-based
- Condition label: RT-112, 5 uM, 72 hours
Observed property: Viability (% of control cells) RT-112 (5 uM) Mean

Below, each entry is followed by its recorded Viability (% of control cells) RT-112 (5 uM) Mean result.
Compound: COc1c(Cl)c(NC(=O)N(C)c2cc(-c3ccc(Cl)cc3)ncn2)c(Cl)c(OC)c1Cl [MPT0L156]
Reported measurement: 98.3 % of control cells

Compound: CCN1CCN(c2ccc(Nc3cc(N(C)C(=O)Nc4c(Cl)c(OC)c(Cl)c(OC)c4Cl)ncn3)cc2)CC1 [MPT0L090]
Reported measurement: 52.6 % of control cells

Compound: COc1ccc(-c2cc(N(C)C(=O)Nc3c(Cl)c(OC)c(Cl)c(OC)c3Cl)ncn2)cc1 [MPT0L153]
Reported measurement: 63.8 % of control cells

Compound: CCN1CCN(c2ccc(Nc3cc(N(C)C(=O)Nc4c(Cl)c(OC)c(Cl)c(OC)c4Cl)nc(-c4ccccc4)n3)cc2)CC1 [MPT0L146]
Reported measurement: 100.8 % of control cells

Compound: CCN1CCN(c2ccc(-c3cc(N(C)C(=O)Nc4c(Cl)c(OC)c(Cl)c(OC)c4Cl)ncn3)cc2)CC1 [MPT0L182]
Reported measurement: 95.6 % of control cells

Compound: CCN1CCN(c2ccc(Nc3ncnc(N(C)C(=O)Nc4c(Cl)c(OC)c(Cl)c(OC)c4Cl)n3)cc2)CC1 [MPT0L145]
Reported measurement: 33.4 % of control cells

Form field: reported Viability (% of control cells) RT-112 (5 uM) Mean of COc1c(Cl)c(NC(=O)N(C)c2cc(-c3ccc(F)cc3)ncn2)c(Cl)c(OC)c1Cl [MPT0L155]
92.6 % of control cells

Which value of Viability (% of control cells) RT-112 (5 uM) Mean has been reported for CCN1CCN(c2ccc(Nc3nc(Cl)nc(N(C)C(=O)Nc4c(Cl)c(OC)c(Cl)c(OC)c4Cl)n3)cc2)CC1 [MPT0L183] in the records?
15.8 % of control cells

---

Target sequence: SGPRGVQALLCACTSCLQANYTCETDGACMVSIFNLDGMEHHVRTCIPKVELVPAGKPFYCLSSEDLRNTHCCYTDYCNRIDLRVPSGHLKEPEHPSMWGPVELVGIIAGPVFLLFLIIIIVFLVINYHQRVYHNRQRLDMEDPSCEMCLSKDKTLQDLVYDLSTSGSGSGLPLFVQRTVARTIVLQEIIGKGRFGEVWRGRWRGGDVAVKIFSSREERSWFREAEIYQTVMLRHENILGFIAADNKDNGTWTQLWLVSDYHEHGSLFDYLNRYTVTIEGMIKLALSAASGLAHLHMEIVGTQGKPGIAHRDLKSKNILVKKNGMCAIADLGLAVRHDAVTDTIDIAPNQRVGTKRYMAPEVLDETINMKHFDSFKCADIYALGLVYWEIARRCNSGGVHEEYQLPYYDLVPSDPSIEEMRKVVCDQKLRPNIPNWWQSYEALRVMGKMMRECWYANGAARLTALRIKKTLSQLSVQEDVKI
Observed property: Kd

Given the molecule `CCN1CCN(c2ccc(Nc3ncnc(N(C)C(=O)Nc4c(Cl)c(OC)c(Cl)c(OC)c4Cl)n3)cc2)CC1` , what is its reported Kd?
> 10 µM
